Hi there, I'd appreciate the recorded IC50 for every entry that follows.
Tested on: Human immunodeficiency virus 1
Assay: Antiviral activity against HIV1 harboring reverse transcriptase K103N/Y181C mutant infected in human MT4 cells assessed as inhibition of virus-induced cytopathogenicity after 5 days by MTT assay
Format: functional, organism-based
Conditions: Human immunodeficiency virus 1, MT4, 120 h

QUERY: What does the data say about its IC50? Entry: CCCNC(c1ccnc(Nc2ccc(C#N)cc2)n1)c1ccccc1Cl (configuration not stated)
RESULT: > 68.5 µM

QUERY: # get_value(readout='IC50', item= CC(C)NC(c1ccc(C#N)cc1)c1ccnc(Nc2ccc(C#N)cc2)n1 (configuration not stated) )
RESULT: > 69.2 µM

QUERY: Name the recorded IC50 for CCNC(c1ccc(C#N)cc1)c1ccnc(Nc2ccc(C#N)cc2)n1 (configuration not stated) .
RESULT: > 158 µM

QUERY: // query IC50 value for entry CCNC(c1ccc(/C=C/C#N)cc1)c1ccnc(Nc2ccc(C#N)cc2)n1 (configuration not stated)
RESULT: > 37.3 µM

QUERY: Looking for the measured IC50 of N#C/C=C/c1ccc(C(NC2CC2)c2ccnc(Nc3ccc(C#N)cc3)n2)cc1 (configuration not stated) , can you help?
RESULT: > 56.1 µM

QUERY: Entry N#Cc1ccc(Nc2nccc(C(NN)c3ccc(C#N)cc3)n2)cc1 (configuration not stated) : reported IC50 = ?
RESULT: 5.95 µM

QUERY: So what's the measured IC50 for this one? N#C/C=C/c1ccc(C(NN)c2ccnc(Nc3ccc(C#N)cc3)n2)cc1 (configuration not stated)
RESULT: 5.33 µM

QUERY: Could you tell me which IC50 is on file for N#Cc1ccc(Nc2nccc(C(NC3CC3)c3ccc(C#N)cc3)n2)cc1 (configuration not stated) ?
RESULT: > 34.7 µM

QUERY: Given CCCNC(c1ccc(C#N)cc1)c1ccnc(Nc2ccc(C#N)cc2)n1 (configuration not stated) , state its recorded IC50.
RESULT: > 34.9 µM

QUERY: Any idea what IC50 was measured for CNC(c1ccnc(Nc2ccc(C#N)cc2)n1)c1ccccc1Cl (configuration not stated) ?
RESULT: > 36.1 µM

QUERY: Consider the molecule shown here: CCNC(c1ccnc(Nc2ccc(C#N)cc2)n1)c1ccccc1Cl (configuration not stated) What is its recorded IC50?
RESULT: > 39.4 µM

QUERY: Entry CC(C)NC(c1ccc(/C=C/C#N)cc1)c1ccnc(Nc2ccc(C#N)cc2)n1 (configuration not stated) : reported IC50 = ?
RESULT: > 32.3 µM

====

Experiment: Cytotoxicity against human MT4 cells after 5 days by MTT assay
Type: cell-based
Rule: CC50 at 120 h below 40 µM gives condition met. Equal to or above 40 µM gives condition not met.

QUERY: Lab note: confirm whether the reported CC50 at 120 h for this compound is below 40 µM, equality not counting. compound: CCNC(c1ccc(/C=C/C#N)cc1)c1ccnc(Nc2ccc(C#N)cc2)n1 (stereo not given)
RESULT: condition met

QUERY: Given the entry CCCNC(c1ccc(C#N)cc1)c1ccnc(Nc2ccc(C#N)cc2)n1 (stereo not given) , would its reported CC50 at 120 h be below 40 µM?
RESULT: condition met

QUERY: # strict comparison: is reported CC50 at 120 h < 40 µM? input = CNC(c1ccc(C#N)cc1)c1ccnc(Nc2ccc(C#N)cc2)n1 (stereo not given)
RESULT: condition not met

QUERY: CC50 at 120 h strictly < 40 µM for this compound? N#C/C=C/c1ccc(C(NC2CC2)c2ccnc(Nc3ccc(C#N)cc3)n2)cc1 (stereo not given)
RESULT: condition not met

QUERY: Threshold test, CC50 at 120 h < 40 µM: CNC(c1ccnc(Nc2ccc(C#N)cc2)n1)c1ccccc1Cl (stereo not given)
RESULT: condition met

QUERY: In the record for Cc1cn([C@H]2C[C@H](N=[N+]=[N-])[C@@H](CO)O2)c(=O)[nH]c1=O , is CC50 at 120 h less than 40 µM?
RESULT: condition not met

QUERY: I wonder whether N#C/C=C/c1ccc(C(NN)c2ccnc(Nc3ccc(C#N)cc3)n2)cc1 (stereo not given) has CC50 at 120 h below 40 µM. Can you tell?
RESULT: condition not met

====

Test: Cytotoxicity against human MT4 cells after 5 days by MTT assay
Format: cell-based
CC50 at 120 h vs 40 µM: less than gives Fulfilled; not less than gives Not fulfilled.

QUERY: Confirm or reject: CC50 at 120 h of Nc1ccn([C@@H]2CS[C@H](CO)O2)c(=O)n1 lies strictly below 40 µM
RESULT: Not fulfilled

QUERY: # strict comparison: is reported CC50 at 120 h < 40 µM? input = N#Cc1ccc(Nc2nccc(C(NC3CC3)c3ccc(C#N)cc3)n2)cc1 (stereo not drawn)
RESULT: Fulfilled

QUERY: Report whether reported CC50 at 120 h is lower than 40 µM (strictly) for CC(C)Nc1cccnc1N1CCN(C(=O)c2cc3cc(NS(C)(=O)=O)ccc3[nH]2)CC1
RESULT: Not fulfilled

QUERY: Does CCCNC(c1ccc(/C=C/C#N)cc1)c1ccnc(Nc2ccc(C#N)cc2)n1 (stereo not drawn) have CC50 at 120 h strictly under 40 µM?
RESULT: Fulfilled

QUERY: is_below(CC50 at 120 h, 40 µM) for CNC(c1ccc(/C=C/C#N)cc1)c1ccnc(Nc2ccc(C#N)cc2)n1 (stereo not drawn) ?
RESULT: Not fulfilled

QUERY: For this molecule, is CC50 at 120 h lower than 40 µM? CC(O)CNC(c1ccnc(Nc2ccc(C#N)cc2)n1)c1ccccc1Cl (stereo not drawn)
RESULT: Fulfilled

QUERY: Does this molecule meet the criterion CC50 at 120 h < 40 µM? CC(C)NC(c1ccnc(Nc2ccc(C#N)cc2)n1)c1ccccc1Cl (stereo not drawn)
RESULT: Fulfilled

QUERY: CC50 at 120 h under 40 µM? Item: CCNC(c1ccc(C#N)cc1)c1ccnc(Nc2ccc(C#N)cc2)n1 (stereo not drawn)
RESULT: Not fulfilled

====

Assay: Cytotoxicity against human MT4 cells after 5 days by MTT assay
Format: cell-based
Assign CC50 at 120 h to each entry below.

QUERY: Dear colleague, I am looking for the recorded CC50 at 120 h of the following molecule: Cc1ccnc2c1NC(=O)c1cccnc1N2C1CC1
RESULT: > 15 µM

QUERY: // CC50 at 120 h lookup, key: N#Cc1ccc(Nc2nccc(C(NN)c3ccc(C#N)cc3)n2)cc1 (stereo not drawn)
RESULT: 40.2 µM

QUERY: Could you tell me which CC50 at 120 h is on file for CCNC(c1ccnc(Nc2ccc(C#N)cc2)n1)c1ccccc1Cl (stereo not drawn) ?
RESULT: 39.4 µM
